# target_under_test: Androgen receptor (Homo sapiens, UniProt P10275, T878A)
# experimental_details: Inhibition of [3H]-DHT binding to T877A androgen receptor of LNCaP cells
# conditions: lncap
parameter: Ki (nM)
Field format: number, assumed nM, no unit text.

Look up Ki with Androgen receptor (Homo sapiens, UniProt P10275, T878A) for this compound: O=C1[C@@H]2C3CCC(C3)[C@@H]2C(=O)N1c1ccc([N+](=O)[O-])c(C(F)(F)F)c1 (stereo in doubt; 16) 2

====

# target_under_test: Androgen receptor (Homo sapiens)
pKi: −log10 of the molar value.
Values of pKi greater than or equal to 7 map to 1; values below map to 0.

Record `O=C1[C@@H]2C3C=CC(C3)[C@@H]2C(=O)N1c1ccc([N+](=O)[O-])c2ccccc12` ; criterion: pKi no lower than 7. Met? 1

Record `O=C1[C@@H]2C3C=CC(C3)[C@@H]2C(=O)N1c1ccc([N+](=O)[O-])cc1` ; criterion: pKi no lower than 7. Met? 0

Record O=C1[C@@H]2C3CCC(C3)[C@@H]2C(=O)N1c1ccc([N+](=O)[O-])c(C(F)(F)F)c1 (stereo in doubt; 15) ; criterion: pKi no lower than 7. Met? 1

Record `O=C1[C@@H]2C3C=CC(C3)[C@@H]2C(=O)N1c1ccc([N+](=O)[O-])c(C(F)(F)F)c1` ; criterion: pKi no lower than 7. Met? 1

Record `O=C1[C@@H]2C3C=CC(C3)[C@@H]2C(=O)N1c1ccc(Br)c(C(F)(F)F)c1` ; criterion: pKi no lower than 7. Met? 1

Record `O=C1[C@@H]2C3C=CC(C3)[C@@H]2C(=O)N1c1cc(C(F)(F)F)cc(C(F)(F)F)c1` ; criterion: pKi no lower than 7. Met? 0

Record `O=C1[C@@H]2C3C=CC(C3)[C@@H]2C(=O)N1c1cccc(C(F)(F)F)c1` ; criterion: pKi no lower than 7. Met? 0

====

# target_under_test: Androgen receptor (Homo sapiens, UniProt P10275)
# Sequence (P10275 whole entry): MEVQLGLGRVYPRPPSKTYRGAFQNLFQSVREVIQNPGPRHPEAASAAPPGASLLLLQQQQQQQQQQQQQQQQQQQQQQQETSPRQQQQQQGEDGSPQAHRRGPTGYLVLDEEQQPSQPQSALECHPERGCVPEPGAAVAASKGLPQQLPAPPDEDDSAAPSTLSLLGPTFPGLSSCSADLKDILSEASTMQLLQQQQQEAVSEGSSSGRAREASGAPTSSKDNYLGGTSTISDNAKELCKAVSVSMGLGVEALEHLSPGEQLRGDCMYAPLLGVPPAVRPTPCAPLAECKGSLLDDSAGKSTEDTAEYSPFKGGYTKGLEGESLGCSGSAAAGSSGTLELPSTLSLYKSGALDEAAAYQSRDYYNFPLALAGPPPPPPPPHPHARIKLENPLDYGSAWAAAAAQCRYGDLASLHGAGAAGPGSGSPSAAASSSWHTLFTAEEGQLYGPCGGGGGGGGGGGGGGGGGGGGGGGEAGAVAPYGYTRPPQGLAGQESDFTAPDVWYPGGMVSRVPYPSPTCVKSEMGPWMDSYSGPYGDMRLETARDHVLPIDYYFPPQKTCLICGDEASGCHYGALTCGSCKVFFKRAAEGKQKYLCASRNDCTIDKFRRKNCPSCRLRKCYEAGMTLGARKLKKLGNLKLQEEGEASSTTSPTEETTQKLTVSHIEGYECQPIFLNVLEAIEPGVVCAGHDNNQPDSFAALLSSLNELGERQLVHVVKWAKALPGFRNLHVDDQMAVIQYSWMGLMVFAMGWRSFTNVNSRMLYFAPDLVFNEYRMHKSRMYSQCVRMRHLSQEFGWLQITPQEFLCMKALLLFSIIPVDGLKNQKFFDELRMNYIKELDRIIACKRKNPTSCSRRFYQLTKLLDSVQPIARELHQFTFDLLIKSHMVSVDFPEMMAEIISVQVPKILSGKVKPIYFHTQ
pIC50: −log10 of the molar value.
Values of pIC50 greater than or equal to 6 map to YES; values below map to NO.

Record `O=C1[C@@H]2C3C=CC(C3)[C@@H]2C(=O)N1c1cc(Cl)cc(Cl)c1` ; criterion: pIC50 no lower than 6. Met? YES

Record `O=C1[C@@H]2C3C=CC(C3)[C@@H]2C(=O)N1c1ccc(O)c2ncccc12` ; criterion: pIC50 no lower than 6. Met? YES

Record `Cc1ccc(N2C(=O)[C@@H]3C4C=CC(C4)[C@@H]3C2=O)cc1C` ; criterion: pIC50 no lower than 6. Met? NO

Record `O=C1[C@@H]2C3C=CC(C3)[C@@H]2C(=O)N1c1ccc(Br)c(C(F)(F)F)c1` ; criterion: pIC50 no lower than 6. Met? YES

Record `O=C1[C@@H]2C3C=CC(C3)[C@@H]2C(=O)N1c1cc(C(F)(F)F)cc(C(F)(F)F)c1` ; criterion: pIC50 no lower than 6. Met? NO

Record `O=C1[C@@H]2C3C=CC(C3)[C@@H]2C(=O)N1c1ccc([N+](=O)[O-])c(C(F)(F)F)c1` ; criterion: pIC50 no lower than 6. Met? YES

Record O=C1[C@@H]2C3CCC(C3)[C@@H]2C(=O)N1c1ccc([N+](=O)[O-])c(C(F)(F)F)c1 (stereo in doubt; 15) ; criterion: pIC50 no lower than 6. Met? YES

====

I'd be grateful if you could share measured Ki for these entries.
# target_under_test: Androgen receptor (Homo sapiens, UniProt P10275, T878A)
# experimental_details: Inhibition of [3H]-DHT binding to T877A androgen receptor of LNCaP cells
Field format: number, assumed nM, no unit text.

Quick check: Ki of `Cc1ccc(N2C(=O)[C@@H]3C4C=CC(C4)[C@@H]3C2=O)cc1C` ? 3.4

Quick check: Ki of `O=C1[C@@H]2C3C=CC(C3)[C@@H]2C(=O)N1c1cc(Cl)cc(Cl)c1` ? 6

Quick check: Ki of `O=C1[C@@H]2C3C=CC(C3)[C@@H]2C(=O)N1c1ccc([N+](=O)[O-])c2ccccc12` ? 0.5

Quick check: Ki of `O=C1[C@@H]2C3C=CC(C3)[C@@H]2C(=O)N1c1cc(C(F)(F)F)cc(C(F)(F)F)c1` ? 24

Quick check: Ki of `O=C1[C@@H]2C3C=CC(C3)[C@@H]2C(=O)N1c1ccc(O)c2ncccc12` ? 32

Quick check: Ki of `O=C1[C@@H]2C3C=CC(C3)[C@@H]2C(=O)N1c1ccc([N+](=O)[O-])cc1` ? 12

Quick check: Ki of `O=C1[C@@H]2C3C=CC(C3)[C@@H]2C(=O)N1c1ccc(F)c(Cl)c1` ? 2

Quick check: Ki of O=C1[C@@H]2C3CCC(C3)[C@@H]2C(=O)N1c1cccc(C(F)(F)F)c1 (stereo in doubt; 13) ? 2

====

What follows is a record of pIC50 for Androgen receptor (Homo sapiens, UniProt P10275, T878A).
Just the number, please; pIC50 means minus log10 of the concentration in mol/L.

Quick check: pIC50 of `O=C1[C@@H]2C3C=CC(C3)[C@@H]2C(=O)N1c1cccc(C(F)(F)F)c1` ? 7.46

Quick check: pIC50 of `O=C1[C@@H]2C3C=CC(C3)[C@@H]2C(=O)N1c1cc(C(F)(F)F)cc(C(F)(F)F)c1` ? 7.14

Quick check: pIC50 of `O=C1[C@@H]2C3C=CC(C3)[C@@H]2C(=O)N1c1cc(Cl)cc(Cl)c1` ? 7.39

Quick check: pIC50 of `O=C1[C@@H]2C3C=CC(C3)[C@@H]2C(=O)N1c1ccc([N+](=O)[O-])cc1` ? 7.52

Quick check: pIC50 of `O=C1[C@@H]2C3CCC(C3)[C@@H]2C(=O)N1c1ccc2ccccc2c1` ? 7.08

Quick check: pIC50 of `O=C1[C@@H]2C3C=CC(C3)[C@@H]2C(=O)N1c1ccc2cccnc2c1` ? 7.28

Quick check: pIC50 of `O=C1[C@@H]2C3C=CC(C3)[C@@H]2C(=O)N1c1ccc(O)c2ncccc12` ? 5.75

Quick check: pIC50 of O=C1[C@@H]2C3CCC(C3)[C@@H]2C(=O)N1c1cccc(C(F)(F)F)c1 (stereo in doubt; 12) ? 8.15

Quick check: pIC50 of `Cc1ccc(N2C(=O)[C@@H]3C4C=CC(C4)[C@@H]3C2=O)cc1C` ? 8.00

Quick check: pIC50 of O=C1[C@@H]2C3CCC(C3)[C@@H]2C(=O)N1c1cccc(C(F)(F)F)c1 (stereo in doubt; 13) ? 7.92

Quick check: pIC50 of `O=C1[C@@H]2C3C=CC(C3)[C@@H]2C(=O)N1c1ccc(F)c(Cl)c1` ? 7.48

Quick check: pIC50 of `O=C1[C@@H]2C3C=CC(C3)[C@@H]2C(=O)N1c1ccc2ccccc2c1` ? 7.08
